These measurements were taken from the supplement of paper PMC12855868.

Below: a set of entries, each annotated with reported scaled log2 fold change.
B1: library; numbered along this chain (parent)
chain: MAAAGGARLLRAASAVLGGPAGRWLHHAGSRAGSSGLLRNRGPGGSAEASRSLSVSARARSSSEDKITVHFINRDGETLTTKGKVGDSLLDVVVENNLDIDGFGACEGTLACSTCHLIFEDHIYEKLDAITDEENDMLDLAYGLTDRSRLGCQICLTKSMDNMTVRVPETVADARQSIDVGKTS

- Variants of: B1
- assay-overview: scaled log2 fold change in cell abundance, elesclomol vs control (0 = silent mean, 1 = nonsense mean) (scaled log2 ratio); higher = higher viability under elesclomol (loss of FDX1 cuproptosis function);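 further: variant abundance is its share of total variant reads in each endpoint sample, from next-generation sequencing of the integrated ORF PCR-amplified out of genomic DNA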
- assay-context: with HEK293T FDX1 KO; elesclomol 40 nM; glucose 10 mM; 11 days
The response must contain the number and no unit.

# variant-key, reading
data = [
    ("C112K", 1.35),
    ("E133W", 0.0959),
    ("H27Q", -0.318),
    ("T114H", 0.334),
    ("D101T", -0.744),
]

Looking for the measured scaled log2 fold change of L144F , can you help? 1.23

Try this variant too: T81H -0.297

Try this variant too: S159W 0.215

Try this variant too: G36L 0.873

Try this variant too: A4I 0.102

Try this variant too: A12S 1.03

Try this variant too: A141S 0.987

Try this variant too: A3P -0.173
